// provenance: patent US5686486A

- Test Target: HIV-1 protease (Human immunodeficiency virus type 1 group M subtype B, UniProt P04585)
- Protocol Details: biochemical
- Experimental Conditions: dose 0.370 uM
Quantity: HIV-1 Protease % Inhib (%)

Compound	Recorded Result
CC(C)(C)OC(=O)N[C@@H](Cc1c[nH]cn1)C(=O)Nc1cccc(C(c2c(O)c3c(oc2=O)CCCCCC3)C2CC2)c1 (single isomer, unassigned) [Example 241]	91.77
Cn1cnc(S(=O)(=O)Nc2cccc([C@@H](c3c(O)c4c(oc3=O)CCCCCC4)C3CC3)c2)c1	97.98
CC(C)(C)OC(=O)NCC(=O)Nc1cccc(C(c2c(O)c3c(oc2=O)CCCCCC3)C2CC2)c1 (single isomer, unassigned)	88.01
CCCC(c1cccc(NS(=O)(=O)c2ccc(C#N)cc2)c1)c1c(O)c2c(oc1=O)CCCCCC2 (single isomer, unassigned)	68.15
CC(C)(C)OC(=O)N[C@@H](Cc1c[nH]cn1)C(=O)Nc1cccc(C(c2c(O)c3c(oc2=O)CCCCCC3)C2CC2)c1 (single isomer, unassigned) [Example 240]	89.42
N#Cc1ccc(S(=O)(=O)Nc2cccc(C(c3c(O)c4c(oc3=O)CCCCCC4)C3CC3)c2)cc1 (stereo not shown)	106.4
I.O=c1oc2c(c(O)c1C(c1cccc(NS(=O)(=O)CCCN3CCOCC3)c1)C1CC1)CCCCCC2 (stereo not shown) [Example 365B (Third Title Compound)]	56.47

----------
compounds and their reported inhibition at 3.3 µM
- Test Target: HIV-1 protease (Human immunodeficiency virus type 1 group M subtype B, UniProt P04585)
- Protocol Details: biochemical
- Experimental Conditions: read-out: HIV-1 Protease % Inhib, dose 3.300 uM

Compound	inhibition at 3.3 µM
CC(C)(C)OC(=O)NCC(=O)Nc1cccc(C(c2c(O)c3c(oc2=O)CCCCCC3)C2CC2)c1 (stereo not shown) [Example 200]	103%
O=c1oc2c(c(O)c1[C@H](c1ccccc1)C1CC1)CCCCCC2	103%
COCC1CCCCCc2c1oc(=O)c(C(c1ccccc1)C1CC1)c2O (stereo not shown)	88.9%
O=c1oc2c(c(O)c1C(c1ccccc1)C1CC1)CCCCCC2CC1CCOC1 (stereo not shown)	101%
O=c1oc2c(c(O)c1C(c1cccc(NS(=O)(=O)c3cccc(NO)c3)c1)C1CC1)CCCCCC2 (stereo not shown) [Example 353 (Second Title Compound)]	110%
O=c1oc2c(c(O)c1C(c1ccccc1)C1CC1)CCCCCC2CC1CCCO1 (single isomer, unassigned)	99.3%
O=c1oc2c(c(O)c1C(c1cccc(NS(=O)(=O)c3ccc(OC(F)(F)F)cc3)c1)C1CC1)CCCCCC2 (stereo not shown)	106%

----------
- Test Target: HIV-1 protease (Human immunodeficiency virus type 1 group M subtype B, UniProt P04585)
- Protocol Details: biochemical
- Experimental Conditions: dose 0.123 uM
compounds and their reported HIV-1 Protease % Inhib

Compound	HIV-1 Protease % Inhib
CC(C)(C)OC(=O)NCC(=O)Nc1cccc(C(c2c(O)c3c(oc2=O)CCCCCC3)C2CC2)c1 (single isomer, unassigned) [Example 239]	69.55%
CC(C)(C)OC(=O)N[C@@H](Cc1c[nH]cn1)C(=O)Nc1cccc(C(c2c(O)c3c(oc2=O)CCCCCC3)C2CC2)c1 (single isomer, unassigned) [Example 241]	81.78%
CC(C)(C)OC(=O)NCC(=O)Nc1cccc(C(c2c(O)c3c(oc2=O)CCCCCC3)C2CC2)c1 (single isomer, unassigned) [Example 238]	30.5%
N#Cc1ccc(S(=O)(=O)Nc2cccc(C(c3c(O)c4c(oc3=O)CCCCCC4)C3CC3)c2)cc1 (stereo not drawn) [Example 402]	103.69%
O=c1oc2c(c(O)c1C(c1ccccc1)C1CC1)CCCCCC2CC1CCCO1 (single isomer, unassigned)	33.13%
CC(C)(C)OC(=O)N[C@@H](Cc1c[nH]cn1)C(=O)Nc1cccc(C(c2c(O)c3c(oc2=O)CCCCCC3)C2CC2)c1 (stereo partly drawn) [Example 213]	74.4%

----------
- Test Target: UniProt P04585
- Protocol Details: biochemical
- Experimental Conditions: read-out: HIV-1 Protease % Inhib, dose 10.000 uM

Compound	inhibition at 10 µM / %
O=c1oc2c(c(O)c1C1(c3ccccc3)CCC1)CCCCCC2	69.5
COc1cccc(Br)c1S(=O)(=O)Nc1cccc(C(c2c(O)c3c(oc2=O)CCCCCC3)C2CC2)c1 (centres unmarked)	111
O=c1oc2ccccc2c(O)c1C(CCc1ccccc1)c1ccccc1 (centres unmarked)	48.3
O=C(CCN1CCCCC1)Nc1cccc(C(c2c(O)c3c(oc2=O)CCCCCC3)C2CC2)c1 (centres unmarked)	109
CCCc1ccc(S(=O)(=O)Nc2cccc(C(c3c(O)c4c(oc3=O)CCCCCC4)C3CC3)c2)cc1 (centres unmarked)	108
CCC(c1cccc(NC(=O)C(C)N)c1)c1c(O)c2ccccc2oc1=O (centres unmarked)	115
CCC(c1cccc(NC(=O)CCSc2nc3ccccc3s2)c1)c1c(O)c2ccccc2oc1=O (centres unmarked)	48.4
CCC(c1cccc(NC(=O)CCNC(=O)OC(C)(C)C)c1)c1c(O)c2ccc(OC)cc2oc1=O (centres unmarked)	90.2
CCC(c1cccc(C(=O)NC(C(=O)NCc2ccccn2)C(C)CC)c1)c1c(O)c2ccccc2oc1=O (centres unmarked)	99.2
COc1ccc(S(=O)(=O)Nc2cccc(C(c3c(O)c4c(oc3=O)CCCCCC4)C3CC3)c2)cc1 (centres unmarked)	133
CCC(c1cccc(NC(=O)CCNC(=O)OC(C)(C)C)c1)c1c(O)c2ccccc2oc1=O (centres unmarked)	96.6

----------
- Test Target: HIV-1 protease (Human immunodeficiency virus type 1 group M subtype B, UniProt P04585)
- Protocol Details: biochemical
- Experimental Conditions: read-out: HIV-1 Protease % Inhib, dose 100.000 uM
Quantity: inhibition at 100 µM (%)

Compound	Test Target	Quantity	Recorded Result
CCOc1ccc2c(O)c(C(CC)c3ccccc3)c(=O)oc2c1 (stereo not drawn)	HIV-1 protease (Human immunodeficiency virus type 1 group M subtype B, UniProt P04585)	inhibition at 100 µM	89
C=CCOc1ccccc1C(CC)c1c(O)c2ccccc2oc1=O (stereo not drawn)	HIV-1 protease (Human immunodeficiency virus type 1 group M subtype B, UniProt P04585)	inhibition at 100 µM	92.2
CCC(c1ccc(OC(C)=O)cc1)c1c(O)c2ccccc2oc1=O (stereo not drawn)	HIV-1 protease (Human immunodeficiency virus type 1 group M subtype B, UniProt P04585)	inhibition at 100 µM	92.3

----------
- Test Target: HIV-1 protease (Human immunodeficiency virus type 1 group M subtype B, UniProt P04585)
- Protocol Details: biochemical
- Experimental Conditions: read-out: HIV-1 Protease % Inhib, dose 0.370 uM
Quantity: inhibition at 0.37 µM (%)

Compound	Test Target	Recorded Result
COc1ccc(S(=O)(=O)Nc2cccc(C(c3c(O)c4c(oc3=O)CCCCCC4)C3CC3)c2)cc1OC (stereo not shown) [Example 335]	HIV-1 protease (Human immunodeficiency virus type 1 group M subtype B, UniProt P04585)	82.9
CC(C)CC1CCCCc2c1oc(=O)c(C(c1ccccc1)C1CC1)c2O (stereo not shown) [Example 183]	HIV-1 protease (Human immunodeficiency virus type 1 group M subtype B, UniProt P04585)	56.5
O=c1oc2c(c(O)c1C(c1cccc(NS(=O)(=O)c3ccc4ccccc4c3)c1)C1CC1)CCCCCC2 (stereo not shown) [Example 266]	HIV-1 protease (Human immunodeficiency virus type 1 group M subtype B, UniProt P04585)	88.4
COCC1CCCCCc2c1oc(=O)c(C(c1ccccc1)C1CC1)c2O (stereo not shown) [Example 177]	HIV-1 protease (Human immunodeficiency virus type 1 group M subtype B, UniProt P04585)	16.9

----------
compounds and their reported HIV-1 Protease % Inhib
- Test Target: HIV-1 protease (Human immunodeficiency virus type 1 group M subtype B)
- Protocol Details: biochemical
- Experimental Conditions: dose 1.100 uM

Compound	Reading Unit	HIV-1 Protease % Inhib
COCCC1CCCCc2c1oc(=O)c(C(c1ccccc1)C1CC1)c2O (stereo not shown) [Example 194]	%	81.89
CC(C)(C)OC(=O)NCC(=O)Nc1cccc(C(c2c(O)c3c(oc2=O)CCCCCC3)C2CC2)c1 (single isomer, unassigned) [Example 239]	%	98.34
Cc1cccc(Cl)c1S(=O)(=O)Nc1cccc(C(c2c(O)c3c(oc2=O)CCCCCC3)C2CC2)c1 (stereo not shown) [Example 287]	%	36.69
CC(C)(C)OC(=O)N[C@@H](Cc1c[nH]cn1)C(=O)Nc1cccc(C(c2c(O)c3c(oc2=O)CCCCCC3)C2CC2)c1 (single isomer, unassigned) [Example 240]	%	111.38

----------
- Test Target: HIV-1 protease (Human immunodeficiency virus type 1 group M subtype B)
- Protocol Details: biochemical
- Experimental Conditions: read-out: HIV-1 Protease % Inhib, dose 0.123 uM
# class assignment by measured inhibition at 0.123 µM: low band: < 50%; middle band: ≥ 50% and < 70%; high band: ≥ 70%

Compound	Test Target	Label
O=C(CO)Nc1cccc(S(=O)(=O)Nc2cccc(C(c3c(O)c4c(oc3=O)CCCCCC4)C3CC3)c2)c1 (stereo not shown) [Example 409]	HIV-1 protease (Human immunodeficiency virus type 1 group M subtype B)	middle band
CC(=O)Nc1ccc(S(=O)(=O)Nc2cccc(C(c3c(O)c4c(oc3=O)CCCCCC4)C3CC3)c2)cc1 (stereo not shown) [Example 307]	HIV-1 protease (Human immunodeficiency virus type 1 group M subtype B)	low band
O=c1oc2c(c(O)c1C(c1cccc(NS(=O)(=O)c3cccc(CO)c3)c1)C1CC1)CCCCCC2 (stereo not shown) [Example 356]	HIV-1 protease (Human immunodeficiency virus type 1 group M subtype B)	high band
O=c1oc2c(c(O)c1[C@@H](c1cccc(NS(=O)(=O)c3cccc4cccnc34)c1)C1CC1)CCCCCC2 [Example 260]	HIV-1 protease (Human immunodeficiency virus type 1 group M subtype B)	high band
CCCCS(=O)(=O)Nc1cccc(C(c2c(O)c3c(oc2=O)CCCCCC3)C2CC2)c1 (stereo not shown) [Example 326]	HIV-1 protease (Human immunodeficiency virus type 1 group M subtype B)	middle band
CCC(c1cccc(NS(=O)(=O)c2ccc(Cl)cc2)c1)c1c(O)c2c(oc1=O)CCCCCC2 (stereo not shown) [Example 221]	HIV-1 protease (Human immunodeficiency virus type 1 group M subtype B)	high band
O=c1oc2c(c(O)c1C(c1cccc(NS(=O)(=O)c3ccccc3C(F)(F)F)c1)C1CC1)CCCCCC2 (stereo not shown) [Example 286]	HIV-1 protease (Human immunodeficiency virus type 1 group M subtype B)	low band
O=c1oc2c(c(O)c1C(c1cccc(NS(=O)(=O)c3cccc4cccnc34)c1)C1CC1)CCCCCC2 (stereo not shown) [Example 263]	HIV-1 protease (Human immunodeficiency virus type 1 group M subtype B)	high band
NC(=O)c1ccc(S(=O)(=O)Nc2cccc(C(c3c(O)c4c(oc3=O)CCCCCC4)C3CC3)c2)cc1 (stereo not shown) [Example 365A]	HIV-1 protease (Human immunodeficiency virus type 1 group M subtype B)	high band
O=c1oc2c(c(O)c1C(c1cccc(NS(=O)(=O)Nc3ccccc3)c1)C1CC1)CCCCCC2 (stereo not shown) [Example 397]	HIV-1 protease (Human immunodeficiency virus type 1 group M subtype B)	low band
O=c1oc2c(c(O)c1C(c1cccc(NS(=O)(=O)c3ccc(Cl)cc3Cl)c1)C1CC1)CCCCCC2 (stereo not shown) [Example 305]	HIV-1 protease (Human immunodeficiency virus type 1 group M subtype B)	middle band
CC(C)(C)OC(=O)NCCCC(=O)Nc1cccc(C(c2c(O)c3c(oc2=O)CCCCCC3)C2CC2)c1 (stereo not shown) [Example 201]	HIV-1 protease (Human immunodeficiency virus type 1 group M subtype B)	low band
O=c1oc2c(c(O)c1C(c1cccc(NS(=O)(=O)c3ccccc3)c1)C1CC1)CCCCCC2 (stereo not shown) [Example 319]	HIV-1 protease (Human immunodeficiency virus type 1 group M subtype B)	middle band
